Test system: MDA-MB-468
Assay: drug sensitivity score (DSS), CellTiter-Glo (DSS (AUC-based score)); higher = stronger drug effect (viability inhibition or cytotoxicity); extreme values may be limits of the assay
Details: incubation time: 72 h
Each entry gets 0.0 if its drug sensitivity score stays under 3, and 1.0 if its drug sensitivity score is 3 or above.

- molecule: "CCN(CC)CCCC(C)Nc1c2ccc(Cl)cc2nc2ccc(OC)cc12 (stereo not drawn)"
  label: 0.0
- molecule: "CC[C@@H]1C(=O)N(C)c2cnc(Nc3ccc(C(=O)NC4CCN(C)CC4)cc3OC)nc2N1C1CCCC1"
  label: 1.0
- molecule: "C=CCc1cccc(/C=N/NC(=O)CN2CCN(Cc3ccccc3)CC2)c1O"
  label: 1.0
- molecule: "CCCS(=O)(=O)Nc1ccc(F)c(C(=O)c2c[nH]c3ncc(-c4ccc(Cl)cc4)cc23)c1F"
  label: 0.0
- molecule: "O=C(/C=C/c1cccnc1)NCCCCC1CCN(C(=O)c2ccccc2)CC1"
  label: 1.0
- molecule: "COc1cc([C@@H]2c3cc4c(cc3[C@@H](O[C@@H]3O[C@@H]5CO[C@@H](c6cccs6)O[C@H]5[C@H](O)[C@H]3O)[C@H]3COC(=O)[C@H]23)OCO4)cc(OC)c1O [Teniposide]"
  label: 1.0
- molecule: "CCc1cncnc1N1CCN(Cc2nc3ccc(C(F)(F)F)cc3[nH]2)CC1"
  label: 0.0
- molecule: "CC[C@H](C)C(=O)O[C@H]1C[C@H](O)C=C2C=C[C@H](C)[C@H](CC[C@@H](O)C[C@@H](O)CC(=O)O)[C@H]21"
  label: 1.0

* * *

Tested on: CAL-85-1
Assay: normalised viability (% of control), CellTiter-Blue; higher = more viable cells (about 100 = DMSO control)
Conditions: 10000 nM; incubation time: 72 h
Measured normalised viability, listed per entry for reference.

- compound: "Nc1nc(F)nc2c1ncn2[C@@H]1O[C@H](CO)[C@@H](O)[C@@H]1O"
  quantity_unit: "%"
  normalised viability: 78.1
- compound: "CC[C@H](Nc1ncnc2[nH]cnc12)c1nc2cccc(F)c2c(=O)n1-c1ccccc1"
  quantity_unit: "%"
  normalised viability: 47.5
- compound: "NCCCNCCSP(=O)(O)O"
  quantity_unit: "%"
  normalised viability: 89.9
- compound: "Oc1ncc(N(CCCl)CCCl)c(O)n1"
  quantity_unit: "%"
  normalised viability: 93.9
- compound: "Cc1ccc(-c2cc(C(F)(F)F)nn2-c2ccc(S(N)(=O)=O)cc2)cc1"
  quantity_unit: "%"
  normalised viability: 63.4
- compound: "COc1cc([C@@H]2c3cc4c(cc3[C@@H](O[C@@H]3O[C@@H]5CO[C@@H](c6cccs6)O[C@H]5[C@H](O)[C@H]3O)[C@H]3COC(=O)[C@H]23)OCO4)cc(OC)c1O [Teniposide]"
  quantity_unit: "%"
  normalised viability: 26.4

* * *

Measured normalised viability, listed per entry for reference.
Tested on: MDA-MB-231
Assay: normalised viability (% of control), CellTiter-Blue; higher = more viable cells (about 100 = DMSO control)
Conditions: 10 nM; incubation time: 72 h

- compound: "COc1cc([C@@H]2c3cc4c(cc3[C@@H](O[C@@H]3O[C@@H]5CO[C@@H](c6cccs6)O[C@H]5[C@H](O)[C@H]3O)[C@H]3COC(=O)[C@H]23)OCO4)cc(OC)c1O [Teniposide]"
  normalised viability (%): 103
- compound: "O=C(O)C1(C(=O)O)CCC1.[NH2-].[NH2-].[Pt+2] [Carboplatin]"
  normalised viability (%): 85.8
- compound: "Nc1nc2[nH]cc(CCc3ccc(C(=O)N[C@@H](CCC(=O)O)C(=O)O)cc3)c2c(=O)[nH]1 [Pemetrexed]"
  normalised viability (%): 97.5
- compound: "Oc1ncc(N(CCCl)CCCl)c(O)n1 [Uracil mustard]"
  normalised viability (%): 100
- compound: "COc1cc2nccc(Oc3ccc(NC(=O)Nc4cc(C)on4)c(Cl)c3)c2cc1OC [Tivozanib]"
  normalised viability (%): 87.8
- compound: "Nc1nc(F)nc2c1ncn2[C@@H]1O[C@H](CO)[C@@H](O)[C@@H]1O [Fludarabine]"
  normalised viability (%): 90.9
- compound: "CCc1cncnc1N1CCN(Cc2nc3ccc(C(F)(F)F)cc3[nH]2)CC1"
  normalised viability (%): 96.9
- compound: "CCCS(=O)(=O)Nc1ccc(F)c(C(=O)c2c[nH]c3ncc(-c4ccc(Cl)cc4)cc23)c1F [Vemurafenib]"
  normalised viability (%): 91.5

* * *

System: SK-BR-3
Test: normalised response (% of control), CellTiter-Glo; higher = more viable cells (100 = DMSO, 0 = benzethonium chloride kill control)
Settings: incubation time: 72 h
experimental_endpoint: normalised response (%)

- molecule: "O=C(/C=C/c1cccnc1)NCCCCC1CCN(C(=O)c2ccccc2)CC1 [Daporinad] (10 nM)"
  test_result: 103
- molecule: "C=CC(=O)Nc1cc2c(Nc3ccc(F)c(Cl)c3)ncnc2cc1OCCCN1CCOCC1 [Canertinib] (100 nM)"
  test_result: 46.4
- molecule: "COc1cc2c(NC3CCN(C(C)C)CC3)nc(C3CCCCC3)nc2cc1OCCCN1CCCC1 [UNC0638] (100 nM)"
  test_result: 80.1
- molecule: "CC(=O)Nc1cccc(-n2c(=O)n(C3CC3)c(=O)c3c(Nc4ccc(I)cc4F)n(C)c(=O)c(C)c32)c1 [Trametinib] (2.5 nM)"
  test_result: 98.4
- molecule: "COc1cc([C@@H]2c3cc4c(cc3[C@@H](O[C@@H]3O[C@@H]5CO[C@@H](c6cccs6)O[C@H]5[C@H](O)[C@H]3O)[C@H]3COC(=O)[C@H]23)OCO4)cc(OC)c1O [Teniposide] (100 nM)"
  test_result: 58.5
- molecule: "O=C(O)CCCCC(CCSCc1ccccc1)SCc1ccccc1 (stereo unspecified) [CPI-613] (100 nM)"
  test_result: 104

* * *

System: DU-4475
Experiment: normalised viability (% of control), CellTiter-Blue; higher = more viable cells (about 100 = DMSO control)
Conditions: 300 nM; incubation time: 72 h
Measured normalised viability, listed per entry for reference.
experimental_endpoint: normalised viability (%)

- compound: "CC1=C(/C=C/C(C)=C/C=C/C(C)=C/C(=O)O)C(C)(C)CCC1 [Tretinoin]"
  quantity_unit: "%"
  test_result: 91.1
- compound: "C[C@H]1C[C@@H]2[C@H]([C@@H](O)C[C@@]3(C)[C@H]2CC[C@]3(O)C(=O)CO)[C@@]2(C)C=CC(=O)C=C12 [Methylprednisolone]"
  quantity_unit: "%"
  test_result: 100
- compound: "Cc1ccc(-c2cc(C(F)(F)F)nn2-c2ccc(S(N)(=O)=O)cc2)cc1 [Celecoxib]"
  quantity_unit: "%"
  test_result: 96
- compound: "C=CC(=O)Nc1cc2c(Nc3ccc(F)c(Cl)c3)ncnc2cc1OCCCN1CCOCC1 [Canertinib]"
  quantity_unit: "%"
  test_result: 93.3
- compound: "CCCCC(=O)OCC(=O)[C@]1(O)Cc2c(O)c3c(c(O)c2[C@@H](O[C@H]2C[C@H](NC(=O)C(F)(F)F)[C@H](O)[C@H](C)O2)C1)C(=O)c1c(OC)cccc1C3=O [Valrubicin]"
  quantity_unit: "%"
  test_result: 23.4

* * *

Measured EC50, CellTiter-Blue viability, listed per entry for reference.
Tested on: HCC1143
Conditions: 72 h

- compound_smiles: "Nc1nc2[nH]cc(CCc3ccc(C(=O)N[C@@H](CCC(=O)O)C(=O)O)cc3)c2c(=O)[nH]1"
  quantity_unit: "µM"
  censoring_operator: ">"
  EC50, CellTiter-Blue viability: 10
- compound_smiles: "C=CC(=O)Nc1cc2c(Nc3ccc(F)c(Cl)c3)ncnc2cc1OCCCN1CCOCC1"
  quantity_unit: "µM"
  censoring_operator: "="
  EC50, CellTiter-Blue viability: 4.17
- compound_smiles: "O=C(O)C(=O)O.[NH-][C@@H]1CCCC[C@H]1[NH-].[Pt+2]"
  quantity_unit: "µM"
  censoring_operator: "="
  EC50, CellTiter-Blue viability: 8.31
- compound_smiles: "CC(=O)Nc1cccc(-n2c(=O)n(C3CC3)c(=O)c3c(Nc4ccc(I)cc4F)n(C)c(=O)c(C)c32)c1"
  quantity_unit: "µM"
  censoring_operator: "="
  EC50, CellTiter-Blue viability: 0.00292
- compound_smiles: "Nc1ccccc1NC(=O)c1ccc(CNC(=O)OCc2cccnc2)cc1"
  quantity_unit: "µM"
  censoring_operator: "="
  EC50, CellTiter-Blue viability: 5.1

* * *

Tested on: HCC1937
Test: normalised viability (% of control), CellTiter-Blue; higher = more viable cells (about 100 = DMSO control)
Details: 1000 nM; incubation time: 72 h
Labelling: normalised viability reported below 90% becomes rule met; at or above becomes rule not met.

- compound: "Cc1cnc(NC(=O)Nc2cc(Br)c(C)cc2OC[C@@H]2CNCCO2)cn1"
  measurement_target: "HCC1937"
  label: "rule met"
- compound: "Nc1ccccc1NC(=O)c1ccc(CNC(=O)OCc2cccnc2)cc1 [Entinostat]"
  measurement_target: "HCC1937"
  label: "rule met"
- compound: "O=C(Cc1ccc(-c2ccc(OCCN3CCOCC3)cc2)cn1)NCc1ccccc1 [KX2-391]"
  measurement_target: "HCC1937"
  label: "rule met"
- compound: "CCN(CC)CCCC(C)Nc1c2ccc(Cl)cc2nc2ccc(OC)cc12 (stereo not drawn) [Mepacrine]"
  measurement_target: "HCC1937"
  label: "rule met"
- compound: "N#Cc1ccc(C(c2ccc(C#N)cc2)n2cncn2)cc1 [Letrozole]"
  measurement_target: "HCC1937"
  label: "rule met"
- compound: "CCCS(=O)(=O)Nc1ccc(F)c(C(=O)c2c[nH]c3ncc(-c4ccc(Cl)cc4)cc23)c1F [Vemurafenib]"
  measurement_target: "HCC1937"
  label: "rule not met"
- compound: "O=C(/C=C/c1cccnc1)NCCCCC1CCN(C(=O)c2ccccc2)CC1 [FK-866]"
  measurement_target: "HCC1937"
  label: "rule met"
- compound: "Nc1nc2[nH]cc(CCc3ccc(C(=O)N[C@@H](CCC(=O)O)C(=O)O)cc3)c2c(=O)[nH]1 [Pemetrexed]"
  measurement_target: "HCC1937"
  label: "rule not met"
- compound: "CC[C@H](Nc1ncnc2[nH]cnc12)c1nc2cccc(F)c2c(=O)n1-c1ccccc1 [CAL-101]"
  measurement_target: "HCC1937"
  label: "rule not met"
- compound: "C[C@H]1C[C@@H]2[C@H]([C@@H](O)C[C@@]3(C)[C@H]2CC[C@]3(O)C(=O)CO)[C@@]2(C)C=CC(=O)C=C12 [Methylprednisolone]"
  measurement_target: "HCC1937"
  label: "rule not met"
- compound: "Oc1ncc(N(CCCl)CCCl)c(O)n1 [Uracil mustard]"
  measurement_target: "HCC1937"
  label: "rule met"
